Provide the reported polymerase ribozyme fitness (log ratio) of each item.
B1: TPR 5TU (parent)
chain: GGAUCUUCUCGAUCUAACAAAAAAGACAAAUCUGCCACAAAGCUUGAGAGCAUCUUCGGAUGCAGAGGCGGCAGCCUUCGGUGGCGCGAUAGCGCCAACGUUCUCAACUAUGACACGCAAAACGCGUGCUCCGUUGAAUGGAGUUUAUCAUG

Variants of: B1
protocol-notes: polymerase ribozyme fitness, log enrichment relative to wild type (log ratio); higher = more active; in vitro selection for triplet polymerase activity
Fewer inactive variants are shown than the library holds.

Please review the entries below; each comes with its answer.
U9G A16C A30C G34A G58U C93G C105A A110G C118U C149U	-4.17
C36A G46A C96U U148A	≤ -4.2
A40G A47G U144G	-2.26

I would be grateful if you could provide polymerase ribozyme fitness (log ratio) for each of the following entries.
1. C57U G94C C116U
2. U7C C27U C38U C54G A64G C75U C85A C96U C105G C114U
3. C5U C8G A137U U145A A147C
4. C18G U45A A121U
5. C27U A66G G88A G136A

Result:
1. 0.445
2. ≤ -4.2
3. ≤ -4.2
4. -2.73
5. ≤ -4.2

I would be grateful if you could provide polymerase ribozyme fitness (log ratio) for each of the following entries.
1. A20U A40U C69A
2. A3U A22G C43U G68A U78G G92A A107U A110G A113G U151C
3. A37G C38A C43U C54G G80U U104G
4. G80U G86U G94C C105A U134A

Result:
1. -2.77
2. ≤ -4.2
3. ≤ -4.2
4. ≤ -4.2

I would be grateful if you could provide polymerase ribozyme fitness (log ratio) for each of the following entries.
1. A24U C93A G112A C114U C116G A119G
2. C51A C57G G68C A73C C76G G86U G100C A120G A122C U134A
3. C79A C93G C95U U127G C131U G143U
4. U55A A119G U139G
5. C43U A106G

Result:
["≤ -4.2", "≤ -4.2", "≤ -4.2", 0.219, "≤ -4.2"]

I would be grateful if you could provide polymerase ribozyme fitness (log ratio) for each of the following entries.
1. G84A C105U
2. A12C A23G U31C U55A
3. C85A A98U C108A U134G
4. A20C C27U G81A G86A C99G
5. C18U C85U
6. A24C A73G G83C G143U

Result:
1. 0.191
2. ≤ -4.2
3. ≤ -4.2
4. -2.96
5. -0.241
6. ≤ -4.2

I would be grateful if you could provide polymerase ribozyme fitness (log ratio) for each of the following entries.
1. A19U G59A G83U C95A C132U G136U G141A
2. C8G C18U C38U G50C C54U G65C C87U C99G
3. A24U C35A C85U C132A
4. C57A C75U G92C G140U
5. G68U C95U C96U A113C G124U
6. A29G C43U A66C C96U C103A
7. C27U C85A

Result:
["≤ -4.2", "≤ -4.2", "≤ -4.2", "≤ -4.2", "≤ -4.2", "≤ -4.2", -2.04]

I would be grateful if you could provide polymerase ribozyme fitness (log ratio) for each of the following entries.
1. G11U C103G C123G
2. A16G A23C U55G G88A C108A U111C A122C

Result:
[-2.44, "≤ -4.2"]

I would be grateful if you could provide polymerase ribozyme fitness (log ratio) for each of the following entries.
1. C69G A73C U77C G84A C118U C131A U139G
2. U7C C27A C69G G86A G100C

Result:
≤ -4.2
≤ -4.2

I would be grateful if you could provide polymerase ribozyme fitness (log ratio) for each of the following entries.
1. A21G A49C G81A G141A
2. A22U A28U C57U U77G C85G G92U

Result:
1: ≤ -4.2; 2: ≤ -4.2
